assayed-system: PTPN2 (Mus musculus)
Construct: HiBiT; host or cells: B16F10.4
Sequence (Q06180 whole entry): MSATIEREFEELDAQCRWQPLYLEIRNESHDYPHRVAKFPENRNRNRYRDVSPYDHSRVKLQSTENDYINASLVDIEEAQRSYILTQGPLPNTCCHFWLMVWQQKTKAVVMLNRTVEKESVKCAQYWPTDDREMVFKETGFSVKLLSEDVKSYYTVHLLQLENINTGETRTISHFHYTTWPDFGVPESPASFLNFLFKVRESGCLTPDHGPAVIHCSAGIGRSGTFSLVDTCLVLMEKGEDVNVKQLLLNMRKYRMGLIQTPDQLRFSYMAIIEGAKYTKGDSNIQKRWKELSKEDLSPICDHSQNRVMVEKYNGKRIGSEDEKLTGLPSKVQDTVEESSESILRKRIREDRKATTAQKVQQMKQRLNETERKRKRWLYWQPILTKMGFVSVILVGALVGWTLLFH
assay-comment: HiBiT PTPN2 degradation in B16F10.4 cells, 24 hours
Type: cell-based
I'd be grateful if you could share measured DC50 for these entries.

Param item = C[C@H]1CN(c2ccc3c(c2)n(C)c(=O)n3C2CCC(=O)NC2=O)CC[C@@H]1CC(=O)Nc1ccc2c(F)c(N3CC(=O)NS3(=O)=O)c(O)cc2c1 (some centres unmarked) ; retrieve measured DC50.
50 to 150 nM

May I ask what DC50 has been recorded for C[C@@H]1CN(c2ccc3c(c2)n(C)c(=O)n3C2CCC(=O)NC2=O)CCN1CC(=O)Nc1ccc2c(F)c(N3CC(=O)NS3(=O)=O)c(O)cc2c1 (some centres unmarked) ?
150 to 500 nM

Which DC50 value belongs to O=C1CCC(N2C(=O)c3cccc4c(-c5ccc(CC(=O)Nc6ccc7c(F)c(N8CC(=O)NS8(=O)=O)c(O)cc7c6)cc5)ccc2c34)C(=O)N1 (centres unmarked) ?
50 to 150 nM

DC50 lookup needed for C[C@H](C(=O)Nc1ccc2c(F)c(N3CC(=O)NS3(=O)=O)c(O)cc2c1)C1CCN(c2ccc3c(c2)n(C)c(=O)n3C2CCC(=O)NC2=O)CC1 (some centres unmarked) , thanks.
150 to 500 nM

Name the recorded DC50 for Cn1c(=O)n(C2CCC(=O)NC2=O)c2ccc(C3CCN(CCNC(=O)c4ccc5c(F)c(N6CC(=O)NS6(=O)=O)c(O)cc5c4)CC3(F)F)cc21 (centres unmarked) .
50 to 150 nM

Query (compound): Cc1nn(C2CCC(=O)NC2=O)c2ccc(C3CCN(CC(=O)Nc4ccc5c(F)c(N6CC(=O)NS6(=O)=O)c(O)cc5c4)CC3)cc12 (centres unmarked) ; field requested: DC50
150 to 500 nM

What measured DC50 goes with Cn1c(=O)n(C2CCC(=O)NC2=O)c2ccc(C3CCN(CC4CC4C(=O)N4CC(Oc5ccc6cc(O)c(N7CC(=O)NS7(=O)=O)c(F)c6c5)C4)CC3)cc21 (centres unmarked) ?
150 to 500 nM

Field request: DC50 | item: Cn1c(=O)n(C2CCC(=O)NC2=O)c2ccc(N3CC4(CC(OCC(=O)Nc5ccc6c(F)c(N7CC(=O)NS7(=O)=O)c(O)cc6c5)C4)C3)cc21 (centres unmarked)
150 to 500 nM

Report DC50 for Cn1c(=O)n(C2CCC(=O)NC2=O)c2ccc(N3CCC(CC4CC4C(=O)Nc4ccc5c(F)c(N6CC(=O)NS6(=O)=O)c(O)cc5c4)CC3)cc21 (centres unmarked) please.
50 to 150 nM

Param item = Cn1c(=O)n(C2CCC(=O)NC2=O)c2cc(F)c(N3CCC(CCNC(=O)Nc4ccc5c(F)c(N6CC(=O)NS6(=O)=O)c(O)cc5c4)CC3)cc21 (centres unmarked) ; retrieve measured DC50.
150 to 500 nM

Consider the compound shown here: C[C@H]1CN(CC(=O)Nc2ccc3c(F)c(N4CC(=O)NS4(=O)=O)c(O)cc3c2)CCN1c1ccc2c(c1F)n(C)c(=O)n2C1CCC(=O)NC1=O (some centres unmarked) What is its recorded DC50?
≥ 500 nM

###

Answer each item with its documented DC50.
assayed-system: PTPN2 (Homo sapiens)
Construct: expressed in transfected cells; host or cells: 293T.109 (HiBiT-PTPN2), derived from 293T WT (ATCC)
Sequence (P17706 whole entry): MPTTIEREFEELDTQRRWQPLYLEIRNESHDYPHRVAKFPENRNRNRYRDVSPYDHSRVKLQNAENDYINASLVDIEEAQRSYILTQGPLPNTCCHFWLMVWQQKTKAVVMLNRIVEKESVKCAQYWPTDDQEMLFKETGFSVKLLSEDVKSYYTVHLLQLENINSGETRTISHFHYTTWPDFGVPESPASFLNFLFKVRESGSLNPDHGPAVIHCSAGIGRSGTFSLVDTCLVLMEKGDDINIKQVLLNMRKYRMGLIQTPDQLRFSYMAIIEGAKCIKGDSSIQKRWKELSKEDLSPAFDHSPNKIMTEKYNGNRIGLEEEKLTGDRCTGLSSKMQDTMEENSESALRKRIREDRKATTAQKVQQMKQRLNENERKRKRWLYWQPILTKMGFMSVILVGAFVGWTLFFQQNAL
assay-comment: HiBiT PTPN2 degradation in 293T.109 (HiBiT-PTPN2) cells, 24 hours
Assay type: cell-based
details: 293T.109 cells

Enter reported DC50 observed with PTPN2 (Homo sapiens) for Cn1c(=O)n(C2CCC(=O)NC2=O)c2ccc(Cc3ccc(CC(=O)Nc4ccc5c(F)c(N6CC(=O)NS6(=O)=O)c(O)cc5c4)cc3)cc21 (stereo not drawn)
< 50 nM

API: value(readout=DC50, system=PTPN2 (Homo sapiens)) for record Cn1c(=O)n(C2CCC(=O)NC2=O)c2ccc(-c3ccc(NC(=O)Nc4ccc5c(F)c(N6CC(=O)NS6(=O)=O)c(O)cc5c4)cc3)cc21 (stereo not drawn)
50 to 150 nM

Find the measured DC50: item CCn1nc(C2CCC(=O)NC2=O)c2ccc(C3CCN(CC(=O)N4CC(Oc5ccc6cc(O)c(N7CC(=O)NS7(=O)=O)c(F)c6c5)C4)CC3(F)F)cc21 (stereo not drawn) , target or system PTPN2 (Homo sapiens).
< 50 nM

Look up DC50 with PTPN2 (Homo sapiens) for this compound: Cc1cc(CC(=O)Nc2ccc3c(F)c(N4CC(=O)NS4(=O)=O)c(O)cc3c2)ccc1Oc1ccc2c(c1)n(C)c(=O)n2C1CCC(=O)NC1=O (stereo not drawn)
50 to 150 nM

Find DC50 (PTPN2 (Homo sapiens)) for the entry Cn1c(=O)n(C2CCC(=O)NC2=O)c2ccc([C@@H]3CCCN(CC(=O)Nc4ccc5c(F)c(N6CC(=O)NS6(=O)=O)c(O)cc5c4)C3)cc21 (stereo partly drawn)
50 to 150 nM

What measured DC50 is associated with Cn1nc(C2CCC(=O)NC2=O)c2ccc(Nc3ccc(CC(=O)Nc4ccc5c(F)c(N6CC(=O)NS6(=O)=O)c(O)cc5c4)cc3F)cc21 (stereo not drawn) on PTPN2 (Homo sapiens)?
< 50 nM

Return DC50 measured with PTPN2 (Homo sapiens) given this compound: Cn1c(=O)n(C2CCC(=O)NC2=O)c2ccc(C3CCN(CC(=O)N4CC[C@H](Oc5ccc6cc(O)c(N7CC(=O)NS7(=O)=O)c(F)c6c5)C4)CC3(F)F)cc21 (stereo partly drawn)
≥ 500 nM

Find DC50 (PTPN2 (Homo sapiens)) for the entry Cn1c(=O)n(C2CCC(=O)NC2=O)c2ccc(C3CCN(CC(=O)Nc4ccc5c(F)c(N6CC(=O)NS6(=O)=O)c(O)cc5c4)CC3F)cc21 (stereo not drawn)
< 50 nM

// lookup DC50 | system=PTPN2 (Homo sapiens) | key= Cn1c(=O)n(C2CCC(=O)NC2=O)c2ccc([C@H]3CCN(CC(=O)Nc4ccc5c(F)c(N6CC(=O)NS6(=O)=O)c(O)cc5c4)C3)cc21 (single isomer, unassigned)
50 to 150 nM
